# Test system: 3',5'-cyclic-AMP phosphodiesterase 4B (Rattus norvegicus, UniProt P14646)
# Sequence (P14646 whole entry): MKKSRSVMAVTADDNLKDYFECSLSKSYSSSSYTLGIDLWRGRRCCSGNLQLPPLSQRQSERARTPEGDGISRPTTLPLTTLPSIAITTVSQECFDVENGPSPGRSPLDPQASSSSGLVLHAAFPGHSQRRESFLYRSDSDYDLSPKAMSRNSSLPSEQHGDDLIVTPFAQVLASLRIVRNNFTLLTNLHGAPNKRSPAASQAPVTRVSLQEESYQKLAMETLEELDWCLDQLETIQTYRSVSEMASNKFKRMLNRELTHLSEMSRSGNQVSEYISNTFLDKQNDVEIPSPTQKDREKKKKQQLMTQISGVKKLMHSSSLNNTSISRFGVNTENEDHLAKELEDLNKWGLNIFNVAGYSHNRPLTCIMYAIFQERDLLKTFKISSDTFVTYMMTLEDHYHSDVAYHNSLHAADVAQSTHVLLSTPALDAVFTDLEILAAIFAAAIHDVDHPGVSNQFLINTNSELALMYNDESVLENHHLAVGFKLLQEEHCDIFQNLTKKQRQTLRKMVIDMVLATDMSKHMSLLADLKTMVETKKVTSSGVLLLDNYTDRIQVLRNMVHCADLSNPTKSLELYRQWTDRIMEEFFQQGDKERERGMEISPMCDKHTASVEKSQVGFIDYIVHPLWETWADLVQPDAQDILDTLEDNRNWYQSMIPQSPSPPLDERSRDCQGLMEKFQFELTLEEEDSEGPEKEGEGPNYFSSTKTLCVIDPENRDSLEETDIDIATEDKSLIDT
pIC50: −log10 of the molar value.
Measure: pIC50

O=S(=O)(Oc1cc2cccnc2c(-c2cccc(Cl)c2)n1)C(F)(F)F 6.34
O=[N+]([O-])c1cccc(-c2nccc3cccnc23)c1 5.06
Nc1cc2cccnc2c(-c2cccc([N+](=O)[O-])c2)n1 5.34

[I] Cc1ccccc1-c1cc2cccnc2c(-c2cccc([N+](=O)[O-])c2)n1
[II] CN1CCN(C(=O)c2cc3cccnc3c(-c3cccc([N+](=O)[O-])c3)n2)CC1
[III] N#Cc1cccc(-c2nc(-c3ccc(C(=O)O)cc3)cc3cccnc23)c1
[IV] O=C(O)c1ccc(-c2cc3cccnc3c(-c3cccc(Cl)c3)n2)cc1
-- ask Sort (4 compounds) by pIC50: min first. Give me the labels in the order the question wants.
-- reply II, I, III, IV
